Quick reference for Population Healthy Nuclei (%) among some compounds
Test system: HEK-293T
Assay details: Multiplex assay against HEK293T
Type: toxicity, cell-based
Assay setup: human, 24 h, 1 µM, compound concentration 1 uM
Hi! Could you send only the number? It should be in %, unit omitted.

Some solved entries appear below for comparison.
Cc1onc(-c2ccccc2Cl)c1C(=O)N(C)c1ccc(Cl)cc1
81
CN1CCN2c3ccccc3Cc3ccccc3C2C1.Cl (centres undefined) [MIANSERIN HYDROCHLORIDE]
80
CCC(=O)OCC(=O)[C@@]1(OC(=O)CC)[C@@H](C)C[C@H]2[C@@H]3CCC4=CC(=O)C=C[C@]4(C)[C@@]3(Cl)[C@@H](O)C[C@@]21C [BECLOMETHASONE DIPROPIONATE]
81

Let us move to another entry and its Population Healthy Nuclei (%).
Lookup: Population Healthy Nuclei (%) / HEK-293T / CC[C@H]1OC(=O)[C@H](C)[C@@H](O[C@H]2C[C@@](C)(OC)[C@@H](O)[C@H](C)O2)[C@H](C)[C@@H](O[C@@H]2O[C@H](C)C[C@H](N(C)C)[C@H]2O)[C@@]2(C)CC(C)=C(O2)[C@H](C)[C@@H](O)[C@]1(C)O 78

* * *

Test system: U2OS
Assay details: Multiplex assay against U2OS
Format: toxicity, cell-based
Assay setup: human, 24 h, 1 µM, compound concentration 1 uM
Quick reference for Population Pyknosed Nuclei (%) among some compounds
Hi! Could you send only the number? It should be in %, unit omitted.

Some solved entries appear below for comparison.
N#Cc1c(N)nc(SCc2csc(-c3ccc(Cl)cc3)n2)c(C#N)c1-c1ccc(OCCO)cc1 [CAPADENOSON]
12
CC[C@H]1OC(=O)[C@H](C)[C@@H](O[C@H]2C[C@@](C)(OC)[C@@H](O)[C@H](C)O2)[C@H](C)[C@@H](O[C@@H]2O[C@H](C)C[C@H](N(C)C)[C@H]2O)[C@@]2(C)CC(C)=C(O2)[C@H](C)[C@@H](O)[C@]1(C)O
16
CCCC(CCC)C(=O)O [VALPROIC ACID]
8
C[C@H]1[C@H]2CC[C@H]3[C@@H]4CC=C5C[C@@H](N(C)C)CC[C@]5(C)[C@H]4CC[C@]23CN1C [CONESSINE]
7
Br.CS(=O)(=O)Nc1c(O)ccc2c1CCCC2C1=NCCN1 (configuration not stated)
7
COc1ccccc1N1CCN(C[C@@H](C(=O)NC(C)(C)C)c2ccccc2)CC1.Cl.Cl
8

Let us move to another entry and its Population Pyknosed Nuclei (%).
For the compound O=C(NCCO)c1cccc(-c2cc(Nc3ccc(OC(F)(F)F)cc3)ncn2)c1 , what Population Pyknosed Nuclei (%) is on record? 9

* * *

Quick reference for Population Hoechst High Intensity Objects (%) among some compounds
Tested on: HEK-293T
Assay details: Multiplex assay against HEK293T
Type: toxicity, cell-based
Assay setup: human, 24 h, 1 µM, compound concentration 1 uM
Hi! Could you send only the number? It should be in %, unit omitted.

Some solved entries appear below for comparison.
CCCC(CCC)C(=O)O
4
COc1ccc(-n2c(C)c([N+](=O)[O-])c3ccc(O)cc32)cc1
0

For the compound Cl.c1ccc2c(c1)CCC[C@H]2Nc1nc2ccccc2[nH]1 , what Population Hoechst High Intensity Objects (%) is on record? 0

All figures here come from ChEMBL document CHEMBL5724801.
